system: OVCAR-5 ovarian; assay: NCI-60 one-dose screen, 48 h (100 = growth as untreated, 0 = no growth, -100 = all killed); conditions: 10 µM unless noted
The panel holds about 83,000 compounds, 20% with a hit somewhere; the sample as a whole holds those more often.
Quick rule for you: growth under 90% gets Yes, anything else gets No.

COC(=O)C(CC=O)C(=O)C(=O)Nc1cccc(C(F)(F)F)c1 (configuration not stated)    No
CC(=O)N1N=C(c2ccc(-n3ccc(C(F)(F)F)n3)c(F)c2)CC1c1ccc[nH]1 (configuration not stated)    No
CCNC(=O)Oc1ccc(/C(=C(\C)c2ccccc2)c2ccc(OCCCN(C)C)cc2)cc1    Yes
CCOC(=O)c1cc(C#N)n2ccc3ccccc3c12    No

query: Please check: growth for `CN1CCN(C(=O)[C@]23CCC(C)(C)C[C@H]2C2=CC[C@@H]4[C@@]5(C)C/C(=C/c6cccnc6)C(=O)C(C)(C)[C@@H]5CC[C@@]4(C)[C@]2(C)CC3)CC1` , strictly under 90% or not?
result: No

query: Let us now turn to `O=S(=O)(NCCNc1nccc(-c2c(-c3cccc(O)c3)nc3occn23)n1)c1ccc(Cl)cc1`
result: No

query: Would you kindly repeat that for `COc1ccc(Cc2cnc(NC(=O)c3ccc4c(c3)OCCO4)s2)cc1` ?
result: Yes

query: Entry C=C1C(=O)O[C@H]2[C@H]1CC/C(CNC(=O)C(C)c1ccc(CC(C)C)cc1)=C\CC[C@@]1(C)O[C@@H]21 (some centres not stated) please
result: Yes

query: Record: `Cc1ncc(C(=O)Nc2ccc(CN3CCN(C)CC3)c(C(F)(F)F)c2)cc1C#Cc1cnc(N)cc1C#N`
result: Yes

query: Field entry: `CCNc1nc2ccc(Nc3ccnc4cc(Cl)ccc34)cc2[nH]1`
result: No

query: Now this one: `Cc1nc2sccn2c1-c1nc2sccn2c1/C=C1/C(=O)Nc2ccccc21`
result: Yes

---

system: SN12C renal; test: NCI-60 one-dose screen, 48 h; settings: 10 µM unless noted
The panel holds about 83,000 compounds, 20% with a hit somewhere; the sample as a whole holds those more often. Active and inactive are the calls of the source. The calls were made as follows: active = growth percent below 10; inactive = the rest.
Output constraint: value belongs to T (active), F (inactive)

# count of solved cases: 5
O=S(=O)(NCCNc1nccc(-c2c(-c3cccc(F)c3)nc3sccn23)n1)c1ccccc1    F
CNC(=O)c1cc(Cn2nc(C)c(NC(=O)Nc3ccc(Cl)c(C(F)(F)F)c3)c2C)ccn1    F
CCOC(=O)[C@@H]1CCCN(S(=O)(=O)c2ccc(S(=O)(=O)N(CC)CC)c(F)c2)C1    F
N#C/C(=C\c1c(-c2ccccc2)[nH]c2ccccc12)C(=O)c1ccc(Cl)cc1    F
N#CC1=C(N)Oc2c(cnn2-c2ccc([N+](=O)[O-])cc2[N+](=O)[O-])C1c1ccccc1 (stereo unspecified)    F

Read the next record carefully.
query: GET /call?item= `C#Cc1cccc(NC(=O)Nc2cccc(NC(=O)CCl)c2)c1` returns the recorded outcome of this test.
result: T

---

Can you tell me growth for the items I'm about to list?
test system: HCC-2998 colon; assay: NCI-60 one-dose screen, 48 h (100 = growth as untreated, 0 = no growth, -100 = all killed); conditions: 10 µM unless noted
This is part of a sample that, as a whole, favours compounds with a hit. Of some 83,000 tested, about 20% had one in any assay. Calls of active or inactive are those of the source. The calls were made as follows: active = growth percent below 10; inactive = the rest.

Answered cases to consult:
Cc1cc2nc3c4cccc(O)c4n(CCN(C)C)c3nc2cc1C    24.5% (inactive)
Cc1nc2sccn2c1-c1cn2ccsc2n1    50.2% (inactive)
Cn1ccnc1C(=O)/C=C/c1ccc(CC(=O)Nc2ccc(F)cc2)cc1    85.4% (inactive)

Now take the following molecule into account.
query: // returns reported growth for input `C=C1C(=O)O[C@H]2[C@H]1CC/C(CNS(=O)(=O)c1cccc3ccccc13)=C\CC[C@@]1(C)O[C@@H]21`
result: 71.5% (inactive)
